# experimental_conditions: 313.15 K; 101.33 kPa; Liquid; Hot wire method

compound | measurement_units | thermal conductivity
CCCC[P+](CCCC)(CCCC)CCCC.N[C@@H](CS)C(=O)[O-] [tetrabutylphosphonium L-cysteinate] | W/m/K | 0.15
CCCC[N+](C)(CCCC)CCCC.N[C@@H](CO)C(=O)[O-] [N,N-dibutyl-N-methylbutanaminium L-serinate] | W/m/K | 0.167
CCCC[N+](C)(CCCC)CCCC.C[C@@H](O)[C@H](N)C(=O)[O-] [N,N-dibutyl-N-methyl-1-butanaminium L-threoninate] | W/m/K | 0.158
CCCC[P+](CCCC)(CCCC)CCCC.NCCCC[C@H](N)C(=O)[O-] [tetrabutylphosphonium L-lysinate] | W/m/K | 0.162
